- Tested on: RPMI 8402 cells
- protocolNotes: Test B. MTT cytotoxicity assay (MTA), RPMI 8402
- Format: cell-based
- experimentalSetup: RPMI 8402 human lymphoblast; continuous drug exposure, MTT at end of fourth day
Consider the following compounds and their measured IC50 readings.
propertyLabel: IC50 (µM)

[[record]]
compound = "c1ccc(-c2ccc3[nH]c(-c4ccc5[nH]c(-c6ccc7nccnc7c6)nc5c4)nc3c2)cc1 [Compound 3]"
studytarget = "RPMI 8402 cells"
testresult = 2.3

[[record]]
compound = "O=c1[nH]c2ccc(-c3nc4cc(-c5nc6cc(-c7ccccc7)ccc6[nH]5)ccc4[nH]3)cc2[nH]c1=O [Compound 4]"
studytarget = "RPMI 8402 cells"
testresult = 20

[[record]]
compound = "c1ccc(-c2ccc3[nH]c(-c4ccc5[nH]c(-c6ccc7[nH]nnc7c6)nc5c4)nc3c2)cc1 [Compound 2]"
studytarget = "RPMI 8402 cells"
testresult = 0.47


----------
Consider the following compounds and their measured pIC50 readings.
- Tested on: CPT-K5 (camptothecin-resistant variant of RPMI 8402)
- protocolNotes: Test B. MTT cytotoxicity assay (MTA), CPT-K5
- Assay type: cell-based, human
- experimentalSetup: continuous drug exposure, MTT at end of fourth day
pIC50: −log10 of the molar value.
propertyLabel: pIC50

[[record]]
compoundsmiles = "c1ccc(-c2ccc3[nH]c(-c4ccc5[nH]c(-c6ccc7nccnc7c6)nc5c4)nc3c2)cc1"
censoringqualifier = "="
testresult = 4.68

[[record]]
compoundsmiles = "O=c1[nH]c2ccc(-c3nc4cc(-c5nc6cc(-c7ccccc7)ccc6[nH]5)ccc4[nH]3)cc2[nH]c1=O"
censoringqualifier = "<"
testresult = 4.70

[[record]]
compoundsmiles = "c1ccc(-c2ccc3[nH]c(-c4ccc5[nH]c(-c6ccc7[nH]nnc7c6)nc5c4)nc3c2)cc1"
censoringqualifier = "="
testresult = 6.33

